System: MALME-3M melanoma
Assay: NCI tumour cell line growth inhibition, 48 h
For each record, write down the corresponding TGI.

Request: Look up TGI: CO/S(=N/S(=O)(=O)c1ccccc1)c1ccccc1[N+](=O)[O-] (configuration not stated)
Result: > 100 µM

Request: For the compound COP(=O)(/C=C/C(NC(=O)C(Cl)(Cl)Cl)c1ccccc1)OC (configuration not stated) , what TGI is on record?
Result: > 100 µM

Request: # query: TGI of entry COc1ccc(CC2Cc3ccccc3CC(=O)N2)cc1OC (configuration not stated)
Result: > 100 µM

Request: Could you share which TGI value was measured for COc1ccc(/C(=N/OCCCC(=O)O)c2cccs2)cc1 ?
Result: > 100 µM

Request: Could you tell me which TGI is on file for COc1cccc(/C=C2\N=C(Cl)OC2=O)c1O ?
Result: > 100 µM

Request: Request the reported TGI associated with COc1ccc(N[C@H](CS(=O)c2ccc(C)cc2)C(F)(F)F)cc1 (some centres not stated)
Result: > 100 µM

Request: // query TGI value for entry Cc1ccc(NC(=O)CCc2nnc3s/c(=C\C=C\c4ccccc4)c(=O)n23)cc1
Result: > 100 µM

Request: Name the reported TGI value associated with the compound O=C(O)C(Cc1ccccc1)N=Cc1nc(-c2ccccc2)oc1O (configuration not stated)
Result: > 100 µM

Request: Any idea what TGI was measured for OCC#Cc1ccccc1C#Cc1ccc(C#Cc2ccccc2C#CCO)cc1 ?
Result: > 100 µM

Request: Quick one: TGI for CCOC(=O)C(=CNc1ccc(S(N)(=O)=O)cc1)C(=O)OCC ?
Result: > 100 µM

Request: If you can, please state the reported TGI value of C/C(CC(O)(C(F)(F)F)C(F)(F)F)=N\NC(N)=S .
Result: > 10 µM

Request: Using the record for COC(=O)[C@H](Cc1ccccc1)NC(=O)OCC1OC(n2cc(C)c(=O)[nH]c2=O)CC1N=[N+]=[N-] (some centres not stated) , report its TGI.
Result: > 100 µM

Request: What value of TGI has been recorded for this entry: COC(=O)CCCCCOS(=O)(=O)c1ccc(C)cc1
Result: > 100 µM

Request: Bench note: what TGI did Oc1ccc(O)c(-n2cccn2)c1 show?
Result: > 100 µM

Request: Record request: TGI value, item CCOC(=O)c1ccc(NCc2ccc3nc(OC)c(OC)nc3c2)cc1
Result: > 100 µM

Request: Quick one: TGI for CC(C)CC(C#CCCOC(=O)c1ccccc1)OC(=O)c1ccccc1 (configuration not stated) ?
Result: > 10 µM

Request: Look at this compound and give its reported TGI. CC1=C(C(=O)O)N2C(=O)[C@@H](NC(=O)C(c3ccccc3)N3CSC(=S)N(C(C)C)C3)C2SC1 (some centres not stated)
Result: > 100 µM

Request: Can you look up the measured TGI of NC1=C(O)/C(=N/NS(=O)(=O)c2ccccc2)C(c2ccc3c(c2)OCO3)O1 (configuration not stated) for me?
Result: > 100 µM

Request: Please look up its TGI: OCC1CC2C=CCC(C2)C1 (configuration not stated)
Result: > 100 µM

Request: Item under review: O=C(N/C(=C\c1cccc([N+](=O)[O-])c1)c1nc2c3c(ccc2[nH]1)C(=O)c1ccccc1C3=O)c1ccccc1 . Reported TGI?
Result: > 100 µM

Request: What does the data say about its TGI? Entry: CC[C@H](C)[C@H](NC(=O)c1ncccn1)C(=O)N(C)[C@H](C[C@@H](OC(C)=O)c1nc(C(=O)N[C@@H](Cc2ccccc2)C[C@H](C)C(=O)OC)cs1)C(C)C
Result: > 25 µM

Request: Consider the compound O=C1NN(C(=O)c2ccccc2)C(c2ccc(Cl)c(Cl)c2)=C/C1=C\c1ccccc1[N+](=O)[O-] and give its measured TGI.
Result: > 6.75 µM
